Reported Ki by item:
- experimental system: hKOR (Homo sapiens, UniProt P41145)
- Sequence (P41145 whole entry): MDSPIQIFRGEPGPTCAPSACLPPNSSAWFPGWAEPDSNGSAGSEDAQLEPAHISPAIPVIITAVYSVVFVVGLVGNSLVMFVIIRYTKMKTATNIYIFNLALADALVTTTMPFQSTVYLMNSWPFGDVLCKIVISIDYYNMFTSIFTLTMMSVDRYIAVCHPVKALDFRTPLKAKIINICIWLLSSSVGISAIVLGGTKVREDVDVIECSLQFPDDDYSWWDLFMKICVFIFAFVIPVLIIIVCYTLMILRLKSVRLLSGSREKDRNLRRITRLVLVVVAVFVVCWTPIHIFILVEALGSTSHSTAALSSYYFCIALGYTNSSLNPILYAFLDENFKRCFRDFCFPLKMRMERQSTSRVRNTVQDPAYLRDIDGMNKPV
- protocol: Radioligand binding assay (Eurofins Cerep), [3H]U69,593 displacement
- measurement conditions: Table 3-1; 3 independent experiments; read-out: Ki (nM ± SEM) KOR
experimental readout: Ki (nM)

1. CC[C@@H]1CN2CCc3c([nH]c4ccccc34)[C@@H]2C[C@@H]1/C(=C\OC)C(=O)OC [Corynantheidine, reference compound] : 4060
2. CO/C=C(/C(=O)OC)C1CCN(CCc2c[nH]c3ccccc23)CC1 [Compound 3-23] : 3670
3. CC[C@@H]1CN2CCc3c([nH]c4cccc(OC)c34)[C@@H]2C[C@@H]1/C(=C\OC)C(=O)OC [Mitragynine, mitragynine, reference compound] : 1530
